Target: HEK-293 cells transfected with dox-inducible human wild type FGFR3 (Homo sapiens (Human), UniProt P22607)
Sequence (P22607 23-806): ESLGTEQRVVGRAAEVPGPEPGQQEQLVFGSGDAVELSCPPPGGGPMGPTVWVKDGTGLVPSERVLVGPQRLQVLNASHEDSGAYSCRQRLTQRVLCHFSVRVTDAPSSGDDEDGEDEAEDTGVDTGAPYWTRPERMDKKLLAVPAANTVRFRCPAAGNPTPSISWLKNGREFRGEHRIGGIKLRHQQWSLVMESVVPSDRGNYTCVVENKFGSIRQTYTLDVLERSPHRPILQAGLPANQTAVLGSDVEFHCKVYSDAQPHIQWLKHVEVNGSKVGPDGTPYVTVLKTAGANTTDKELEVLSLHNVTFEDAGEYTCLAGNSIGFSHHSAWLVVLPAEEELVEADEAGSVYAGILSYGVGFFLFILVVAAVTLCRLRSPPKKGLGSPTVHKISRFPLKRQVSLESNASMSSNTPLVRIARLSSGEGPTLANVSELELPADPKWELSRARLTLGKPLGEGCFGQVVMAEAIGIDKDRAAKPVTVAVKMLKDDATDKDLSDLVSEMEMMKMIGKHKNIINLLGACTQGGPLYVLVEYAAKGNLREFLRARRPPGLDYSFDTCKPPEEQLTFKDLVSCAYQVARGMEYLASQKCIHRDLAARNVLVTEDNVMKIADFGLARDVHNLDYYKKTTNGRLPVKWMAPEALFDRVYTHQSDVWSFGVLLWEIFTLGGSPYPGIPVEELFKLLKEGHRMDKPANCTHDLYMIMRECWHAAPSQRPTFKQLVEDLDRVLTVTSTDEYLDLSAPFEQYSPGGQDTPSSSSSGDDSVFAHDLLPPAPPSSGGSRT
Assay: FGFR3 pERK cell assay
Assay type: cell-based
Details: HEK-293 dox-inducible FGFR3, 1 hour compound, 100 ng/ml FGF-acidic; maximum concentration 5 μM
pIC50: −log10 of the molar value.
PROPERTY_NAME: pIC50

// known answers, use as guide
C=CC(=O)N1CCC(C#N)(C(=O)N2CCC(n3cc(-c4cc(OC)c5c(C#N)cnn5c4)cn3)CC2)C1 (stereo not shown) ... 7.59
C=CC(=O)N1CC(CN2CCC(n3ncc(-c4cc(OC)c5c(Cl)cnn5c4)c3C)CC2)C1 ... 7.21

I = COc1cc(-c2cnn(C3CCN(C(=O)C4CN(C(=O)/C=C/CBr)C4)CC3)c2)cn2ncc(C#N)c12
II = C=CC(=O)N1CC(S(=O)(=O)N2CCC(n3cc(-c4cc(OC)c5c(C#N)cnn5c4)cn3)CC2)C1
Endpoint returns the identifier whose pIC50 is numerically larger, either I or II . Kindly give the label for the entry you pick. II
